Biological target: T1, HA69 peptide on HLA DQB1*06:02/DQA1*01:02 (DQ0602) (human)
T1 peptide: AMERNAGSGIIISDT
Assay: activation reporter or marker
measurement.label: binding result

Please review the following examples before continuing.
binder	binding result
TCR512 (TCR) alpha TRAV13-1 TRAJ23 CDR3: CAAPYNQGGKLIF beta TRBV19 TRBJ1-5 CDR3: CASSIVRGLYSNQPQHF	recognises
TCR CATGHTGANSKLTF / CASSLQGTPNGNQPQHF (TCR) alpha TRAV17 TRAJ56 CDR3: CATGHTGANSKLTF beta TRBV19 TRBJ1-5 CDR3: CASSLQGTPNGNQPQHF	recognises
…-1 (TCR) alpha TRAV8-4 TRAJ9 CDR3: CAVNGGFKTIF beta TRBV6-1 TRBJ2-1 CDR3: CASRDRNQYNEQFF	no recognition
…-1 (TCR) alpha TRAV8-3 TRAJ24 CDR3: CAVGLTDSWGKLQF beta TRBV19 TRBJ2-1 CDR3: CASSFSKNGNSYNEQFF	no recognition
TCR CAASRGTSYDKVIF / CSVDRYYNEQFF (TCR) alpha TRAV13-1 TRAJ50 CDR3: CAASRGTSYDKVIF beta TRBV29-1 TRBJ2-1 CDR3: CSVDRYYNEQFF	recognises

Notebook: …-1 (TCR) alpha TRAV10 TRAJ41 CDR3: CVVSEGGYALNF beta TRBV5-1 TRBJ1-5 CDR3: CASSDGTDSNQPQHF , binding result read as no recognition

Form: binder = TCR CAAPGANNLFF / CASSQPHRTSVTGELFF (TCR) alpha TRAV13-1 TRAJ36 CDR3: CAAPGANNLFF beta TRBV4-2 TRBJ2-2 CDR3: CASSQPHRTSVTGELFF ; binding result = recognises

Per the record, TCR CAAPGANNLFF / CASSGTGGQGYNEQFF (TCR) alpha TRAV13-1 TRAJ36 CDR3: CAAPGANNLFF beta TRBV2 TRBJ2-1 CDR3: CASSGTGGQGYNEQFF has binding result of recognises

For record TCR CAASRGTSYDKVIF / CSTQRLYNEQFF (TCR) alpha TRAV13-1 TRAJ50 CDR3: CAASRGTSYDKVIF beta TRBV29-1 TRBJ2-1 CDR3: CSTQRLYNEQFF the listed binding result is recognises

Note to self: binding result recorded for TCR846 (TCR) alpha TRAV8-6 TRAJ54 CDR3: CAVSESAQGAQKLVF beta TRBV19 TRBJ2-3 CDR3: CASSRPGLNTDTQYF was recognises

Looking up TCR538 (TCR) alpha TRAV4 TRAJ42 CDR3: CLVGAPSLYGGSQGNLIF beta TRBV7-8 TRBJ2-1 CDR3: CASNPAGAVSYNEQFF , I see its binding result listed as recognises

For this binder ( TCR CAGRPTSGGSNYKLTF / CASSGGQAYYGYTF (TCR) alpha TRAV35 TRAJ53 CDR3: CAGRPTSGGSNYKLTF beta TRBV19 TRBJ1-2 CDR3: CASSGGQAYYGYTF ), measured binding result is recognises

Memo: TCR CAAFENVLHC / CASSERPYPGETQYF (TCR) alpha TRAV13-1 TRAJ35 CDR3: CAAFENVLHC beta TRBV6-1 TRBJ2-5 CDR3: CASSERPYPGETQYF , reported binding result: recognises

Briefly, binding result measured for …-1 (TCR) alpha TRAV9-2 TRAJ8 CDR3: CALSEGSTGFQKLVF beta TRBV7-8 TRBJ1-3 CDR3: CASSVAGNGNTIYF : no recognition
